# System: Lolium perenne (LOLPE)
# Protocol text: Glasshouse herbicidal test, pre- and post-emergence, percentage damage to the plant
# Assay type: in vivo
# Test parameters: pre-emergence, 250 g/h, evaluated after 13 days
Assay endpoint: LOLPE PRE percentage damage caused to the plant (five-point scale)

// known answers, use as guide
>  <Compound>
CC#Cc1cc(Cl)c(C2C(=O)CC3(CCN(C(C)=O)CC3)CC2=O)c(CC)c1

>  <Data value>
5 (5=80-100%)

$$$$
>  <Compound>
CC#Cc1cc(Cl)c(C2C(=O)CC3(CCN(C(=O)C4CC4)CC3)CC2=O)c(OC)c1

>  <Data value>
5 (5=80-100%)

$$$$
>  <Compound>
CC(=O)N1CCC2(CC1)CC(=O)C(c1c(C)cc(-c3ccc(C#N)cn3)cc1Cl)C(=O)C2

>  <Data value>
5 (5=80-100%)

$$$$
>  <Compound>
CC#Cc1cc(Cl)c(C2C(=O)CC3(CCN(C(C)=O)CC3)CC2=O)c(OC)c1

>  <Data value>
5 (5=80-100%)

$$$$
>  <Compound>
CC#Cc1cc(Cl)c(C2C(=O)CC3(CCN(S(=O)(=O)CC)CC3)CC2=O)c(OC)c1

>  <Data value>
5 (5=80-100%)

$$$$
>  <Compound>
CC#Cc1cc(Cl)c(C2C(=O)CC3(CCN(C(=O)c4ccccn4)CC3)CC2=O)c(OC)c1

>  <Data value>
5 (5=80-100%)

$$$$
>  <Compound>
CC#Cc1cc(Cl)c(C2C(=O)CC3(CCN(C(=O)NC(=O)C(C)(C)C)CC3)CC2=O)c(OC)c1

>  <Data value>
5 (5=80-100%)

$$$$

Turning now to a further molecule:
LOLPE PRE percentage damage caused to the plant (five-point scale) for `CCc1cc(-c2ccc(C#N)cn2)cc(C)c1C1C(=O)CC2(CCN(C(=O)C3CC3)CC2)CC1=O` ?
5 (5=80-100%)

----------
# System: Echinochloa crus-galli (ECHCG)
# Protocol text: Glasshouse herbicidal test, pre- and post-emergence, percentage damage to the plant
# Type: in vivo
# Test parameters: pre-emergence, 250 g/h, evaluated after 13 days
Can you tell me ECHCG PRE percentage damage caused to the plant (five-point scale) for the items I'm about to list?

// known answers, use as guide
>  <Compound>
CC#Cc1cc(Cl)c(C2C(=O)CC3(CCN(C(=O)NC(=O)c4ccccn4)CC3)CC2=O)c(Cl)c1

>  <Data value>
3 (3=40-59%)

$$$$
>  <Compound>
CC#Cc1cc(Cl)c(C2C(=O)CC3(CCN(C(=O)COC)CC3)CC2=O)c(OC)c1

>  <Data value>
5 (5=80-100%)

$$$$

List the reported ECHCG PRE percentage damage caused to the plant (five-point scale) of each compound below.
1. CC#Cc1cc(Cl)c(C2C(=O)CC3(CCN(S(=O)(=O)CC)CC3)CC2=O)c(OC)c1
2. CCc1cc(-c2ccc(C#N)cn2)cc(C)c1C1C(=O)CC2(CCN(C(=O)C3CC3)CC2)CC1=O
3. CC#Cc1cc(C)c(C2C(=O)CC3(CCN(C(C)=O)CC3)CC2=O)c(CC)c1

1: 5 (5=80-100%); 2: 4 (4=60-79%); 3: 5 (5=80-100%)

----------
# Tested on: Lolium perenne (LOLPE)
# Protocol text: Glasshouse herbicidal test, pre- and post-emergence, percentage damage to the plant
# Assay type: in vivo
# Test parameters: pre-emergence, 250 g/h, evaluated after 13 days
Assay endpoint: LOLPE PRE percentage damage caused to the plant (five-point scale)

>  <Compound>
COc1cc(-c2ccc(C#N)cn2)cc(Cl)c1C1C(=O)CC2(CCN(C(=O)C3CC3)CC2)CC1=O

>  <Data value>
5 (5=80-100%)

$$$$
>  <Compound>
CC#Cc1cc(Cl)c(C2C(=O)CC3(CCN(C(=O)C(F)F)CC3)CC2=O)c(Cl)c1

>  <Data value>
5 (5=80-100%)

$$$$
>  <Compound>
CCc1cc(-c2ccc(C#N)cn2)cc(Cl)c1C1C(=O)CC2(CCN(C(=O)C3CC3)CC2)CC1=O

>  <Data value>
5 (5=80-100%)

$$$$

Turning now to a further molecule:
Checklist item: LOLPE PRE percentage damage caused to the plant (five-point scale) tested on Lolium perenne (LOLPE), entry `COc1cc(-c2ccc(C#N)cn2)cc(Cl)c1C1C(=O)CC2(CCN(C(C)=O)CC2)CC1=O` , value?
1 (1=0-19%)
